B1: Twister Ribozyme (parent)
chain: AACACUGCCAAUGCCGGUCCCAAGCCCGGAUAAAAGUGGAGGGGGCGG

# Variants of: B1
# PROCEDURE SUMMARY: self-cleavage, relative activity (ratio to wild type); higher = more cleavage; co-transcriptional
# reported self-cleavage; entries follow
RECORDED ENDPOINT: self-cleavage

VARIANT SPEC	MEAS VALUE
U6A G17U	0.101
G13U A33U	0.403
C3A G44C	0.207
A2U C25G	0.0728
C27A G39A	0.128
A11U G24U	0.105
A4C A22C	0.0993
A11G C25G	0.437
G13A G44U	0.845
G13C A34G	0.253
C19G C26G	0.0807
A10U C26U	0.437
U31G A32G	0.836
G29U A30G	1
A11U C27G	0.104
A11G G13U	0.705
U6A A34G	0.731
C19A A40U	0.16
C14G C27U	0.0942
U31A A32C	1.09
A33G G47U	0.927
A23U G39C	0.0667
